All figures here come from PubChem BioAssay (NCATS).

test_summary: Cell Proliferation Assay against the TMD8 Cell Line (Caspase readout at 8 hrs) (AID 651713)
conditions_used: TMD8 lymphoma cells, caspase activation luminescence; series mostly up to 46.1 µM
Results filed as inconclusive are left out. The source made the active and inactive calls. Calls follow the shape of the dose curve; as a rule, active = well fitted activation curve with a large enough effect; inconclusive = small, poorly fitted or top-dose-only effect, or another doubt; inactive = no such curve, though single readings can be large or run the other way.
Classes used: active, inactive

{"columns": ["molecule", "category_label"],
 "data": [
  ["CNC(=O)c1ccc(N2C(=S)N(c3ccc(C#N)c(C(F)(F)F)c3)C(=O)C23CCC3)cc1F", "inactive"],
  ["CO[C@@H](C(=O)N1Cc2[nH]nc(NC(=O)c3ccc(N4CCN(C)CC4)cc3)c2C1)c1ccccc1", "active"],
  ["C[C@@H]1[C@@H](CC(C[C@H]2O[C@@H]3O[C@]4(C)CC[C@@H]5[C@H](C)CC[C@@H]([C@H]2C)[C@@]35OO4)C[S+](=O)([O-])c2ccc(COC(=O)N(C)C)cc2)O[C@@H]2O[C@]3(C)CC[C@H]4[C@H](C)CC[C@@H]1[C@@]24OO3 (stereo not given in full)", "inactive"],
  ["O=C(O)C(=O)c1cn(Cc2ccccc2)c2ccc(-c3ccc(OC(F)(F)F)cc3)cc12", "inactive"],
  ["C[C@@H]1[C@@H](C(=O)C[C@H]2O[C@@H]3O[C@]4(C)CC[C@@H]5[C@H](C)CC[C@@H]([C@H]2C)[C@@]35OO4)O[C@@H]2O[C@]3(C)CC[C@H]4[C@H](C)CC[C@@H]1[C@@]24OO3", "inactive"],
  ["COc1ccc(C(=O)c2c(C)n(CCN3CCOCC3)c3ccccc23)cc1", "active"],
  ["Cc1cc(SCc2sc(-c3ccc(C(F)(F)F)c(F)c3)nc2C)ccc1OCC(=O)O", "inactive"],
  ["COc1cc(Nc2c(C#N)cnc3cc(OCCCN4CCN(C)CC4)c(OC)cc23)c(Cl)cc1Cl", "active"],
  ["C[C@]12CCC(=O)C(O)=C1CC[C@@H]1[C@@H]2CC[C@]2(C)C(=O)CC[C@@H]12", "inactive"],
  ["Cn1c(CCCC(=O)O)nc2cc(N(CCCl)CCCl)ccc21", "inactive"]
]}
